Target system: T1, human GPC3 on CHO-K1-human GPC3 cells (clone CHOK1-hGPC3.2B5) (human, UniProt P51654 25-554)
T1 construct: whole, on cells; Stably transfected CHO-K1 clone 2B5
Test description: FACS on CHOK1-hGPC3.2B5 cells;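 further: flow cytometry binding of chimeric antibodies to the cells, read out as mean fluorescence intensity, with the half-maximal concentration derived by curve fitting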
Would you kindly list pEC50 for each of these binders?
FYI, pEC50 means -log10 of a concentration in mol per litre.

pEC50 reading for F4.26.1 human-murine chimeric antibody (antibody, human IgG1, kappa, V domains shown) VH: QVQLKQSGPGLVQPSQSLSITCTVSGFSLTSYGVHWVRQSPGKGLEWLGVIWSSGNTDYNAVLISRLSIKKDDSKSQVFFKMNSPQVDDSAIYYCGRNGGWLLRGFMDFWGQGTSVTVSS VL: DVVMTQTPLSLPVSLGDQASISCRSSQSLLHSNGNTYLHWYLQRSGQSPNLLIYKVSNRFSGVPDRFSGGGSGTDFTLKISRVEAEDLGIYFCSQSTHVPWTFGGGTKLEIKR : 8.92

Summary for this binder, F1.83.6 human-murine chimeric antibody (antibody, human IgG1, kappa, V domains shown) VH: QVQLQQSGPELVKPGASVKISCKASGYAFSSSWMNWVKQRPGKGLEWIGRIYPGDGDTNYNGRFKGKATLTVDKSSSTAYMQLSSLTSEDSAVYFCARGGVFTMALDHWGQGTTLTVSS VL: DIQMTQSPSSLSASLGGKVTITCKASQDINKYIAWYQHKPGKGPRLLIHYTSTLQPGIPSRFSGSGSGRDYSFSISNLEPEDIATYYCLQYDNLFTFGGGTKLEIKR : pEC50 is 8.96

The reported value for F2.23.8 human-murine chimeric antibody (antibody, human IgG1, kappa, V domains shown) VH: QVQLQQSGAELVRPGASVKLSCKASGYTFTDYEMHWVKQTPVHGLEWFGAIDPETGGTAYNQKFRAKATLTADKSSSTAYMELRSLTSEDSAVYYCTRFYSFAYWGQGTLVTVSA VL: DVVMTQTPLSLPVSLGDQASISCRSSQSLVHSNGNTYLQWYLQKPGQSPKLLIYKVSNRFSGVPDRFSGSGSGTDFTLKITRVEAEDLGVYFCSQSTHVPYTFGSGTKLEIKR in terms of pEC50 is 8.83

Entry F1.2.14 human-murine chimeric antibody (antibody, human IgG1, kappa, V domains shown) VH: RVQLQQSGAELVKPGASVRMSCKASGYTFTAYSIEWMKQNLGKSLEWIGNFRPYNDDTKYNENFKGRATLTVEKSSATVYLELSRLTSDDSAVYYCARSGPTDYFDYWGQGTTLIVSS VL: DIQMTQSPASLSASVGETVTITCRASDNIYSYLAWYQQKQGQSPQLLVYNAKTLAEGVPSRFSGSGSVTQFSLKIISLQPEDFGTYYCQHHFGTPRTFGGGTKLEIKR , pEC50 reported as 8.78

// field: pEC50; key: F4.18.4 human-murine chimeric antibody (antibody, human IgG1, kappa, V domains shown) VH: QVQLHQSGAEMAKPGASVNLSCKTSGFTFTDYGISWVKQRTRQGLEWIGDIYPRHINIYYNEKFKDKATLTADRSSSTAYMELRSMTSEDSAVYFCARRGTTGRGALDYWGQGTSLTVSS VL: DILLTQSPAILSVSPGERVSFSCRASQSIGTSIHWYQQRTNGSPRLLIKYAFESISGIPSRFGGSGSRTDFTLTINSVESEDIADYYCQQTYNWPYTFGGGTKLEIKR ; value = 9.05
